targetUnderTest: T1, mouse programmed cell death protein 1 Fc fusion protein (mPD-1-Fc), mPD-1 C60S (aa 25-167) (Mus musculus, UniProt Q02242, stabilised)
T1 construct: not cleaved; source: Expi293F, purified (Protein A, SEC; dimeric fraction); not shown: Fc (human), C-terminal, kept
experimentDescription: SPR; Carterra LSA; Fab from the ammonium sulfate precipitate of the culture supernatant immobilised on a NiHC200M chip; hPD-1 (1-1024 nM) or mPD-1-Fc (4-1024 nM) as analyte, fourfold dilution series, no regeneration; HBS-EP pH 7.4, 25 °C; medians over the spots of a construct, KD = koff/kon
testConditions: one partner purified
Rule: koff of 0.004 s⁻¹ or more gives true; anything lower gives false.

1) toripalimab Fab H.E33A (Fab, V domains shown, heavy chain of Sm3 with this change; numbers count from the chain's first residue; as the light chain of Sm3; source: Brevibacillus, culture supernatant (ammonium sulfate precipitate); not shown: 6xHis, C-terminal, kept; 6xHN, C-terminal, kept) VH: QGQLVQSGAEVKKPGASVKVSCKASGYTFTDYAMHWVRQAPIHGLEWIGVIESETGGTAYNQKFKGRVTITADKSTSTAYMELSSLRSEDTAVYYCAREGITTVATTYYWYFDVWGQGTTVTVSS VL: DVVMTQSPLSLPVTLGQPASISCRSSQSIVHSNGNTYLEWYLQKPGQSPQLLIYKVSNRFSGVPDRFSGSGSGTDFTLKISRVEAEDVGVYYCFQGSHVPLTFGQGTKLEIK    false
2) toripalimab Fab L.K55A (Fab, V domains shown, as the heavy chain of Sm3; light chain of Sm3 with this change; numbers count from the chain's first residue; source: Brevibacillus, culture supernatant (ammonium sulfate precipitate); not shown: 6xHis, C-terminal, kept; 6xHN, C-terminal, kept) VH: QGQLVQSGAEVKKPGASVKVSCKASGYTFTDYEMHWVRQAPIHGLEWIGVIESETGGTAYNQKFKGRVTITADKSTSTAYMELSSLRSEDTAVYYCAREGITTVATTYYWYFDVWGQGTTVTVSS VL: DVVMTQSPLSLPVTLGQPASISCRSSQSIVHSNGNTYLEWYLQKPGQSPQLLIYAVSNRFSGVPDRFSGSGSGTDFTLKISRVEAEDVGVYYCFQGSHVPLTFGQGTKLEIK    true
3) toripalimab Fab H.F112Y (Fab, V domains shown, heavy chain of Sm3 with this change; numbers count from the chain's first residue; as the light chain of Sm3; source: Brevibacillus, culture supernatant (ammonium sulfate precipitate); not shown: 6xHis, C-terminal, kept; 6xHN, C-terminal, kept) VH: QGQLVQSGAEVKKPGASVKVSCKASGYTFTDYEMHWVRQAPIHGLEWIGVIESETGGTAYNQKFKGRVTITADKSTSTAYMELSSLRSEDTAVYYCAREGITTVATTYYWYYDVWGQGTTVTVSS VL: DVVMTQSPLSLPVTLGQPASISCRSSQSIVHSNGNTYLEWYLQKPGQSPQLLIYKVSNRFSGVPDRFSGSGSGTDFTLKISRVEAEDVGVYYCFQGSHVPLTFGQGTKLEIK    false
4) toripalimab Fab L.P100D (Fab, V domains shown, as the heavy chain of Sm3; light chain of Sm3 with this change; numbers count from the chain's first residue; source: Brevibacillus, culture supernatant (ammonium sulfate precipitate); not shown: 6xHis, C-terminal, kept; 6xHN, C-terminal, kept) VH: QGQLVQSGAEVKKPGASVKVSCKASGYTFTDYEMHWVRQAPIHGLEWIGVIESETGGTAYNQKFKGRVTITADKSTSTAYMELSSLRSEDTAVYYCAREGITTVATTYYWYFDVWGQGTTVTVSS VL: DVVMTQSPLSLPVTLGQPASISCRSSQSIVHSNGNTYLEWYLQKPGQSPQLLIYKVSNRFSGVPDRFSGSGSGTDFTLKISRVEAEDVGVYYCFQGSHVDLTFGQGTKLEIK    false
5) toripalimab Fab L.L101T (Fab, V domains shown, as the heavy chain of Sm3; light chain of Sm3 with this change; numbers count from the chain's first residue; source: Brevibacillus, culture supernatant (ammonium sulfate precipitate); not shown: 6xHis, C-terminal, kept; 6xHN, C-terminal, kept) VH: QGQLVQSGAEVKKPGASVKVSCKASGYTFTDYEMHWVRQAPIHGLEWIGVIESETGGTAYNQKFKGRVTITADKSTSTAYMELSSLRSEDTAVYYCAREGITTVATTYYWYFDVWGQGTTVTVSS VL: DVVMTQSPLSLPVTLGQPASISCRSSQSIVHSNGNTYLEWYLQKPGQSPQLLIYKVSNRFSGVPDRFSGSGSGTDFTLKISRVEAEDVGVYYCFQGSHVPTTFGQGTKLEIK    false
6) toripalimab Fab L.R59Y (Fab, V domains shown, as the heavy chain of Sm3; light chain of Sm3 with this change; numbers count from the chain's first residue; source: Brevibacillus, culture supernatant (ammonium sulfate precipitate); not shown: 6xHis, C-terminal, kept; 6xHN, C-terminal, kept) VH: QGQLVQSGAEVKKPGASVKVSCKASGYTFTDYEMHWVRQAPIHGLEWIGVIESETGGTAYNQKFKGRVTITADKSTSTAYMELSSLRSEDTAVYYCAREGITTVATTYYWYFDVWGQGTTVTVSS VL: DVVMTQSPLSLPVTLGQPASISCRSSQSIVHSNGNTYLEWYLQKPGQSPQLLIYKVSNYFSGVPDRFSGSGSGTDFTLKISRVEAEDVGVYYCFQGSHVPLTFGQGTKLEIK    true
7) toripalimab Fab L.V99N (Fab, V domains shown, as the heavy chain of Sm3; light chain of Sm3 with this change; numbers count from the chain's first residue; source: Brevibacillus, culture supernatant (ammonium sulfate precipitate); not shown: 6xHis, C-terminal, kept; 6xHN, C-terminal, kept) VH: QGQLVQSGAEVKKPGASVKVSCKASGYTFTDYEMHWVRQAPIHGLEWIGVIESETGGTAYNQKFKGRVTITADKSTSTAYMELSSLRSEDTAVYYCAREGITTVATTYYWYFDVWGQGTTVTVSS VL: DVVMTQSPLSLPVTLGQPASISCRSSQSIVHSNGNTYLEWYLQKPGQSPQLLIYKVSNRFSGVPDRFSGSGSGTDFTLKISRVEAEDVGVYYCFQGSHNPLTFGQGTKLEIK    true
8) toripalimab Fab H.Q62Y (Fab, V domains shown, heavy chain of Sm3 with this change; numbers count from the chain's first residue; as the light chain of Sm3; source: Brevibacillus, culture supernatant (ammonium sulfate precipitate); not shown: 6xHis, C-terminal, kept; 6xHN, C-terminal, kept) VH: QGQLVQSGAEVKKPGASVKVSCKASGYTFTDYEMHWVRQAPIHGLEWIGVIESETGGTAYNYKFKGRVTITADKSTSTAYMELSSLRSEDTAVYYCAREGITTVATTYYWYFDVWGQGTTVTVSS VL: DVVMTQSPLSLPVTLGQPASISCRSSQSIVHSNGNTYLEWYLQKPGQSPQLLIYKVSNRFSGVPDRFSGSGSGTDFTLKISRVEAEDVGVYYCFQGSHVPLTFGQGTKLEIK    true
9) toripalimab Fab H.T107Y (Fab, V domains shown, heavy chain of Sm3 with this change; numbers count from the chain's first residue; as the light chain of Sm3; source: Brevibacillus, culture supernatant (ammonium sulfate precipitate); not shown: 6xHis, C-terminal, kept; 6xHN, C-terminal, kept) VH: QGQLVQSGAEVKKPGASVKVSCKASGYTFTDYEMHWVRQAPIHGLEWIGVIESETGGTAYNQKFKGRVTITADKSTSTAYMELSSLRSEDTAVYYCAREGITTVATYYYWYFDVWGQGTTVTVSS VL: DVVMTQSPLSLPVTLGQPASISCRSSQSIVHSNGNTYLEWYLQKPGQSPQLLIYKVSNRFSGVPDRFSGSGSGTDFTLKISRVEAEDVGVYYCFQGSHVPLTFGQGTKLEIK    true
